// data source = patent US5219870A

# run-description: Animal Experiment: serum concentration and bioavailability of OMP in rabbits (I.V., oral, rectum)
# Format: in vivo, albino rabbits
# experimental-parameters: rabbit, serum, po, 10 mg/kg, oral, 20 mg OMP per 2 kg, 2 hr, average; read-out: serum concentration, average
measured-attribute: concentration at 2 h (ng/mL)
Answers are plain numbers, in ng/mL.

query: Fill in the blank: the reported concentration at 2 h of COc1ccc2[nH]c([S+]([O-])Cc3ncc(C)c(OC)c3C)nc2c1 (stereo not shown) is ____.
result: 455

---

# run-description: Animal Experiment: serum concentration and bioavailability of OMP in rabbits (I.V., oral, rectum)
# Format: in vivo, albino rabbits
# experimental-parameters: rabbit, serum, iv, 10 mg/kg, I.V., 20 mg OMP per 2 kg, 120 min, individual animals; read-out: serum concentration
measured-attribute: concentration at 2 h
Your answer should be a number followed by the unit of measure.

query: Fill in the blank: the reported concentration at 2 h of COc1ccc2[nH]c([S+]([O-])Cc3ncc(C)c(OC)c3C)nc2c1 (stereo not shown) is ____.
result: 5800 ng/mL

---

# run-description: Animal Experiment: serum concentration and bioavailability of OMP in rabbits (I.V., oral, rectum)
# Assay type: in vivo, albino rabbits
# experimental-parameters: rabbit, in vivo, po, 10 mg/kg, Cmax, average
measured-attribute: Cmax
Your answer should be a number followed by the unit of measure.

query: Fill in the blank: the reported Cmax of COc1ccc2[nH]c([S+]([O-])Cc3ncc(C)c(OC)c3C)nc2c1 (stereo not shown) [OMP, Omeprazole] is ____.
result: 598 ng/mL

---

# run-description: Animal Experiment: serum concentration and bioavailability of OMP in rabbits (I.V., oral, rectum)
# Type: in vivo, albino rabbits
# experimental-parameters: rabbit, serum, po, 10 mg/kg, oral, 20 mg OMP per 2 kg, 1 hr, individual animals; read-out: serum concentration
measured-attribute: concentration at 1 h (ng/mL)
Answers are plain numbers, in ng/mL.

query: Fill in the blank: the reported concentration at 1 h of COc1ccc2[nH]c([S+]([O-])Cc3ncc(C)c(OC)c3C)nc2c1 (stereo not shown) [OMP, Omeprazole] is ____.
result: 293

---

# run-description: Animal Experiment: serum concentration and bioavailability of OMP in rabbits (I.V., oral, rectum)
# Assay type: in vivo, albino rabbits
# experimental-parameters: rabbit, serum, po, 10 mg/kg, oral, 20 mg OMP per 2 kg, 7 hr, average; read-out: serum concentration, average
measured-attribute: concentration at 7 h (ng/mL)
One number for each entry, in ng/mL.

query: Fill in the blank: the reported concentration at 7 h of COc1ccc2[nH]c([S+]([O-])Cc3ncc(C)c(OC)c3C)nc2c1 (stereo not shown) is ____.
result: 457

---

# run-description: Animal Experiment: serum concentration and bioavailability of OMP in rabbits (I.V., oral, rectum)
# Type: in vivo, albino rabbits
# experimental-parameters: rabbit, serum, iv, 10 mg/kg, I.V., 20 mg OMP per 2 kg, 5 min, individual animals; read-out: serum concentration
measured-attribute: concentration at 5 min (ng/mL)
One number for each entry, in ng/mL.

query: Fill in the blank: the reported concentration at 5 min of COc1ccc2[nH]c([S+]([O-])Cc3ncc(C)c(OC)c3C)nc2c1 (stereo not shown) is ____.
result: 45900

---

# run-description: Animal Experiment: serum concentration and bioavailability of OMP in rabbits (I.V., oral, rectum)
# Assay type: in vivo, albino rabbits
# experimental-parameters: rabbit, serum, po, 10 mg/kg, oral, 20 mg OMP per 2 kg, individual animals; read-out: Tmax
measured-attribute: Tmax (h)
Answers are plain numbers, in h.

query: Fill in the blank: the reported Tmax of COc1ccc2[nH]c([S+]([O-])Cc3ncc(C)c(OC)c3C)nc2c1 (stereo not shown) [OMP, Omeprazole] is ____.
result: 4

---

# run-description: Animal Experiment: serum concentration and bioavailability of OMP in rabbits (I.V., oral, rectum)
# Assay type: in vivo, albino rabbits
# experimental-parameters: rabbit, in vivo, po, 10 mg/kg, AUC, average
measured-attribute: AUC (ng·h/mL)
Numbers only, in ng·h/mL.

query: Fill in the blank: the reported AUC of COc1ccc2[nH]c([S+]([O-])Cc3ncc(C)c(OC)c3C)nc2c1 (stereo not shown) [OMP, Omeprazole] is ____.
result: 5980

---

# run-description: Animal Experiment: serum concentration and bioavailability of OMP in rabbits (I.V., oral, rectum)
# Assay type: in vivo, albino rabbits
# experimental-parameters: rabbit, serum, iv, 10 mg/kg, I.V., 20 mg OMP per 2 kg, 5 min, average; read-out: serum concentration, average
measured-attribute: concentration at 5 min (µg/mL)
Numbers only, in µg/mL.

query: Fill in the blank: the reported concentration at 5 min of COc1ccc2[nH]c([S+]([O-])Cc3ncc(C)c(OC)c3C)nc2c1 (stereo not shown) is ____.
result: 54.4

---

# run-description: Animal Experiment: serum concentration and bioavailability of OMP in rabbits (I.V., oral, rectum)
# Format: in vivo, albino rabbits
# experimental-parameters: rabbit, serum, iv, 10 mg/kg, I.V., 20 mg OMP per 2 kg, 180 min, average; read-out: serum concentration, average
measured-attribute: concentration at 3 h (ng/mL)
One number for each entry, in ng/mL.

query: Fill in the blank: the reported concentration at 3 h of COc1ccc2[nH]c([S+]([O-])Cc3ncc(C)c(OC)c3C)nc2c1 (stereo not shown) is ____.
result: 2100

---

# run-description: Animal Experiment: serum concentration and bioavailability of OMP in rabbits (I.V., oral, rectum)
# Format: in vivo, albino rabbits
# experimental-parameters: rabbit, serum, po, 10 mg/kg, oral, 20 mg OMP per 2 kg, 4 hr, average; read-out: serum concentration, average
measured-attribute: concentration at 4 h (ng/mL)
Give bare numbers, in ng/mL.

query: Fill in the blank: the reported concentration at 4 h of COc1ccc2[nH]c([S+]([O-])Cc3ncc(C)c(OC)c3C)nc2c1 (stereo not shown) is ____.
result: 477

---

# run-description: Animal Experiment: serum concentration and bioavailability of OMP in rabbits (I.V., oral, rectum)
# Format: in vivo, albino rabbits
# experimental-parameters: rabbit, serum, po, 10 mg/kg, oral, 20 mg OMP per 2 kg, 1 hr, average; read-out: serum concentration, average
measured-attribute: concentration at 1 h (ng/mL)
Answers are plain numbers, in ng/mL.

query: Fill in the blank: the reported concentration at 1 h of COc1ccc2[nH]c([S+]([O-])Cc3ncc(C)c(OC)c3C)nc2c1 (stereo not shown) [OMP, Omeprazole] is ____.
result: 330

---

# run-description: Animal Experiment: serum concentration and bioavailability of OMP in rabbits (I.V., oral, rectum)
# Assay type: in vivo, albino rabbits
# experimental-parameters: rabbit, in vivo, po, 10 mg/kg, Cmax
# Procedure: Using the same method as in Reference 1, one composition using water-Soluble base was manufactured by the following formula; 20 mg OMP. 10 mg arginine and 970 mg PEG 4000, and another composition using lipid-soluble base was manufactured by the following formula; 20 mg OMP, 10 mg arginine and 970 mg Witepsol H-15. Object: 36 male healthy albino rabbits weighing 1.5-2.3 kg. […]
measured-attribute: Cmax (ng/mL)
One number for each entry, in ng/mL.

query: Fill in the blank: the reported Cmax of COc1ccc2[nH]c([S+]([O-])Cc3ncc(C)c(OC)c3C)nc2c1 (stereo not shown) is ____.
result: 591

---

# run-description: Animal Experiment: serum concentration and bioavailability of OMP in rabbits (I.V., oral, rectum)
# Type: in vivo, albino rabbits
# experimental-parameters: rabbit, in vivo, iv, 10 mg/kg, AUC, average
measured-attribute: AUC (ng·h/mL)
Give bare numbers, in ng·h/mL.

query: Fill in the blank: the reported AUC of COc1ccc2[nH]c([S+]([O-])Cc3ncc(C)c(OC)c3C)nc2c1 (stereo not shown) is ____.
result: 35200

---

# run-description: Animal Experiment: serum concentration and bioavailability of OMP in rabbits (I.V., oral, rectum)
# Format: in vivo, albino rabbits
# experimental-parameters: rabbit, in vivo, iv, 10 mg/kg, serum concentration
measured-attribute: concentration at 0.25 h (ng/mL)
Numbers only, in ng/mL.

query: Fill in the blank: the reported concentration at 0.25 h of COc1ccc2[nH]c([S+]([O-])Cc3ncc(C)c(OC)c3C)nc2c1 (stereo not shown) is ____.
result: 16400

---

# run-description: Animal Experiment: serum concentration and bioavailability of OMP in rabbits (I.V., oral, rectum)
# Format: in vivo, albino rabbits
# experimental-parameters: rabbit, serum, iv, 10 mg/kg, I.V., 20 mg OMP per 2 kg, 15 min, average; read-out: serum concentration, average
# Procedure: Using the same method as in Reference 1, one composition using water-Soluble base was manufactured by the following formula; 20 mg OMP. 10 mg arginine and 970 mg PEG 4000, and another composition using lipid-soluble base was manufactured by the following formula; 20 mg OMP, 10 mg arginine and 970 mg Witepsol H-15. Object: 36 male healthy albino rabbits weighing 1.5-2.3 kg. […]
measured-attribute: concentration at 0.25 h (ng/mL)
One number for each entry, in ng/mL.

query: Fill in the blank: the reported concentration at 0.25 h of COc1ccc2[nH]c([S+]([O-])Cc3ncc(C)c(OC)c3C)nc2c1 (stereo not shown) is ____.
result: 25600
